Molecular target: NRAS G12C (Homo sapiens (Human), UniProt P01111+P62937, G12C)
Sequence (P01111 whole entry G12C): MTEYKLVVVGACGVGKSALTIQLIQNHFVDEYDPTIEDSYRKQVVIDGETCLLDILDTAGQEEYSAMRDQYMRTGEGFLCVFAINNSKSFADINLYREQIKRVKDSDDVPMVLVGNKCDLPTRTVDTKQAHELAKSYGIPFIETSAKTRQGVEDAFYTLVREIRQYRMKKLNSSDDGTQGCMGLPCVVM
Sequence (P62937 whole entry): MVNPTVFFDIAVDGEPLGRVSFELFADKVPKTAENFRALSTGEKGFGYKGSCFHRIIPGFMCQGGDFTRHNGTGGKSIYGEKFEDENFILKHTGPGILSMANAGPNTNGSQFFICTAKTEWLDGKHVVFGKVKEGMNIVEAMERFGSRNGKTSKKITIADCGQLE
Experiment: Ras-Raf (BRAF RBD) disruption / FRET / MOA assay, NRAS G12C
Assay type: biochemical
Conditions: read-out: IC50* NRAS G12C FRET data
measured.property: IC50

compound: C=CC(=O)N1CCOC2(CCN(C(=O)N(C)[C@H](C(=O)N[C@H]3Cc4cccc(n4)-c4ccc5c(c4)c(c(-c4cccnc4[C@H](C)OC)n5CC(F)(F)F)CC(C)(C)COC(=O)[C@@H]4CCCN(N4)C3=O)C(C)C)CC2)C1 (atropisomer, axis not shown) [Example A607]
IC50: 100 to 1000 nM

For C=CC(=O)N1CC[C@H](C(=O)N(C)[C@H](C(=O)N[C@H]2Cc3nc(ns3)-c3ccc4c(c3)c(c(-c3cncnc3)n4CC)CC(C)(C)COC(=O)[C@@H]3CCCN(N3)C2=O)C(C)C)C1 [Example A285] , what is its reported IC50?
> 10000 nM

meta.source: patent US11566007B2
